tested on: BT-549 breast; test: NCI tumour cell line growth inhibition, 48 h
property: TGI

Record excerpt, results attached:
>>> df
                                   compound  reported_measurement
0        Cc1ccc2c(c1)Sc1ccc(N=NN(C)C)cc1N2C              > 100 µM
1  CC(C)(C)NC(=O)/C(=C\Sc1ccccc1)c1ccc2c(c1)OCO2              > 100 µM
2                 C/C=C/C=C/c1nc(C#N)c(N)o1              > 100 µM
3  OC(c1ccc(Br)cc1)(c1cccs1)C1CC1 (stereo not given)               58.2 µM

For the compound COc1cc2c(cc1-c1c(C)noc1C)cc(C)c(=O)n2Cc1ccccn1 , what TGI is on record?
> 100 µM
